OD (A492) by entry:
Target: T1, HCV Core1-169 (HCV-1, UniProt P26664 1-169)
T1 construct: also called recombinant HCV core antigen
T1 sequence: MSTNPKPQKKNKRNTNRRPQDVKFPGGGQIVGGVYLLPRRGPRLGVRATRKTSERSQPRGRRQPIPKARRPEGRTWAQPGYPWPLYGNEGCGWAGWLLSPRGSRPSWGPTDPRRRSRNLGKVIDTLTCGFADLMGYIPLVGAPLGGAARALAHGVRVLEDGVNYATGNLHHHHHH
Assay: EIA, core1-169 captured by mAb 14-153-229; note: test concentration or dose not given here

{"columns": ["BINDER", "OD (A492), OD"],
 "data": [
  ["HCV 208B-826 (antibody, V domains shown) VH: DVQLVESGGGLVQAGGSRKLSCAASGFPFSSFGMHWVRQAPEKGLEWVASISSRTSKIYYADNLKGRFTISRDNPKNTLFLQMTSLGSEDTAMYYCVRSVFGNSYWFFDVWGAGTTVTVSS VL: DIVLTQSPATLSVTPGDRVSLSCRASQRIYNYLHWYQQKSHESPRLLTKYASQSISGIPSRFSGSGSGTDFILTINSVETEDFGMYFCQQSNSWPLTFGAGTKLELRR", 0.72],
  ["HCV 208B-560 (antibody, V domains shown) VH: EVQLQQSGPELEKPGASVKISCKTSGYTFTEYAMHWVKQSHGMSLEWIGGINPSNGNAIYNQIFKDKATLTVDRSSSTAYMGLRSLTFGDSGVYFCVRRQLDFFDYWGQGASLTVSS VL: DIVVTQSPASLAVSLGQRATISCRASQSVSTSRYSYLHWYQQKPGQPPKLLIKYASNLESGVPARFSGSGSGTDFTLNIHPVGEEDTATYYCQHSWEFPFTFGSGTKLEIKR", 1.3],
  ["HCV 208B-408 (antibody, V domains shown) VH: EVKLVESGGGLVQPGGSLRLSCASSGFTFTDYYMSWVRQPPGKALEWLGFIRNKAYGYTTEFSASVNGRFTISRDDSQSVPYLQMNTLRAEDSATYYCARVLYYDYGGFAYWGQGTLVTVST VL: DIQMTQSPASLSASVGETVTITCRASGNIHTYLAWYQQKQGKSPQLLVYNANTLADGVPSRFSGSGSGTQFSLKINSLQPDDFGSYYCQHFWSAPWTFGGGTQLEIKR", 0.09]
]}
